This section presents molecules with their documented pEC50 values.
target: Neuronal acetylcholine receptor subunit alpha-7 (Homo sapiens); experiment: Agonist activity at human alpha7 nAChR expressed in xenopus oocytes preincubated for 10 mins followed by acetylcholine addition by patch clamp electrophysiological assay
To interpret pEC50, take it as minus log10 of a concentration measured in moles per litre.

Some molecules with recorded pEC50:
O=C(N[C@H]1CN2CCC1CC2)c1cc2c(F)cccn2c1 5.55
CC(C)(C)c1ccc(-c2cccc3cc(C(=O)N[C@H]4CN5CCC4CC5)cn23)cc1 5.07

Task item: Name the recorded pEC50 for Cc1cccc2cc(C(=O)N[C@H]3CN4CCC3CC4)cn12 .
Reply: 5.67

Task item: Name the recorded pEC50 for O=C(N[C@H]1CN2CCC1CC2)c1cc2cc(Br)ccn2c1 .
Reply: 4.98

---

This section presents compounds with their documented pEC50 values.
biological target: Neuronal acetylcholine receptor subunit alpha-7 (Homo sapiens); assay: Agonist activity at human alpha7 nAChR expressed in xenopus oocytes preincubated for 10 mins followed by acetylcholine addition by patch clamp electrophysiological assay
pEC50: −log10 of the molar value.

O=C(N[C@H]1CN2CCC1CC2)c1cc2ccc(-c3ccccc3)cn2c1 < 4.70

Task item: Name the recorded pEC50 for CN(C)c1cccc(-c2cccc3cc(C(=O)N[C@H]4CN5CCC4CC5)cn23)c1 .
Reply: < 4.70

Task item: Name the recorded pEC50 for O=C(N[C@H]1CN2CCC1CC2)c1cc(C(=O)c2ccc3ccccc3c2)n2ccccc12 .
Reply: < 4.70

Task item: Name the recorded pEC50 for Cc1cccc(-c2ccc3cc(C(=O)N[C@H]4CN5CCC4CC5)cn3c2)c1 .
Reply: < 4.70

---

molecular target: Neuronal acetylcholine receptor subunit alpha-7 (Homo sapiens); assay: […] to human alpha7 nAChR expressed in xenopus oocytes preincubated for 10 mins followed by acetylcholine addition by patch clamp electrophysiological assay relative to acetylcholine; format: cell-based; design: concentration or dose not given beside the values
This section presents molecules with their documented Activity values.
Just the number please, in %, no unit attached.

Task item: Name the recorded Activity for O=C(N[C@H]1CN2CCC1CC2)c1cc2cccc(-c3ccsc3)n2c1 .
Reply: 40.8

---

molecular target: Neuronal acetylcholine receptor subunit alpha-7 (Homo sapiens, UniProt P36544); assay: Agonist activity at human alpha7 nAChR expressed in xenopus oocytes preincubated for 10 mins followed by acetylcholine addition by patch clamp electrophysiological assay
Sequence (P36544 whole entry): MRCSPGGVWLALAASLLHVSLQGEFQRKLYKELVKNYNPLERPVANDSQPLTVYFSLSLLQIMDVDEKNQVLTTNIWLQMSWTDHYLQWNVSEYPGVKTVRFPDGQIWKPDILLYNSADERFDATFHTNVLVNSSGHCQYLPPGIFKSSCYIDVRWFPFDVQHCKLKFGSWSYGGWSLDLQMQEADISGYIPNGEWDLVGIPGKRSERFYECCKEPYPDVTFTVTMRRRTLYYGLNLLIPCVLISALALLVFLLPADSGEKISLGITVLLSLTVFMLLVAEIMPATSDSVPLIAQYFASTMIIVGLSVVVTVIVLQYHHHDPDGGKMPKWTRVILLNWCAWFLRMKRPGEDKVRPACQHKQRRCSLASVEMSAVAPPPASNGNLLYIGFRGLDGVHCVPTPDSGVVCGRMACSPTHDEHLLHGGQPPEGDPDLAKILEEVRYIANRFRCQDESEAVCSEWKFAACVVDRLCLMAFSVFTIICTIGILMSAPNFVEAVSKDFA
pEC50: −log10 of the molar value.
This section presents compounds with their documented pEC50 values.

Task item: Name the recorded pEC50 for O=C(N[C@H]1CN2CCC1CC2)c1cc2c(-c3ccccc3)cccn2c1 .
Reply: < 4.70

Task item: Name the recorded pEC50 for CCOC(=O)c1cc(C(=O)c2ccccc2)n2cccc(C(=O)N[C@H]3CN4CCC3CC4)c12 .
Reply: < 4.70

Task item: Name the recorded pEC50 for O=C(N[C@H]1CN2CCC1CC2)c1cc(C(=O)c2ccc(Cl)cc2)n2ccccc12 .
Reply: < 4.70

Task item: Name the recorded pEC50 for Cc1nc2ccc(F)cn2c1C(=O)N[C@H]1CN2CCC1CC2 .
Reply: < 4.70

Task item: Name the recorded pEC50 for O=C(N[C@H]1CN2CCC1CC2)c1cc(C(=O)c2ccc(-c3ccccc3)cc2)n2ccccc12 .
Reply: < 4.70

Task item: Name the recorded pEC50 for Cc1ccccc1-c1ccc2cc(C(=O)N[C@H]3CN4CCC3CC4)cn2c1 .
Reply: < 4.70
